Field: IC50. Provide a value for each of the molecules that follow.
# Tested on: CEM cells HIV-1 protection, formazan growth assay
# protocolDetails: NCI AIDS Antiviral Assay
# measurementConditions: measured here: growth of uninfected CEM cells
# number only, unit µM dropped from output

Qu. Which measured IC50 value corresponds to Nc1ncnc2c1ncn2C1CC(CO)CO1 (stereo unspecified) ?
Ans. 214

Qu. Fill in the blank: the reported IC50 of `FC(F)(F)c1ccc2c(-c3cc[nH]c3)ccnc2c1` is ____.
Ans. 15.5

Qu. Which IC50 reading was recorded for the molecule `O=C(NC1=Nc2c(ncn2COCCO)S(=O)(=O)[N-]1)c1ccccc1.[Ag+]` ?
Ans. 3.55

Qu. Entry `CCCc1cc(=O)oc2c3c(cc(OC)c12)O[C@H](C)[C@H](C)[C@@H]3O` : reported IC50 = ?
Ans. 38.9

---

# Test system: CEM cells HIV-1 protection, formazan growth assay
# protocolDetails: NCI AIDS Antiviral Assay
# measurementConditions: measured here: growth of uninfected CEM cells
Where a SMILES comes first, the peptide text is derived from it. [ ]: non-standard residue; d: D form. The star is where a group is joined. Phe(4-NO2) = N[CH](Cc1ccc([N+](=O)[O-])cc1)C(=O)O; Boc = CC(C)(C)OC(=O)*
I'd appreciate it if you could supply pIC50 values for the items below.
Expect pIC50 as a plain number equal to -log10 of the molar concentration.

Qu. I have this compound here, `Cc1ccc2nc3c(Cl)cc(=O)cc-3sc2c1` , and I need its recorded pIC50.
Ans. 5.41

Qu. Look up pIC50 for this compound: `CN(C(=O)c1cccs1)C(=S)N1CCN(c2ccccn2)CC1`
Ans. 3.96

Qu. What pIC50 value was documented for this compound, `Cc1c(C)c2ccc3occc(=O)c3c2oc1=O` ?
Ans. 4.02

Qu. What does the record list as pIC50 for `c1ccc([P+](Cc2cccc(C[P+](c3ccccc3)(c3ccccc3)c3ccccc3)c2)(c2ccccc2)c2ccccc2)cc1` ?
Ans. 4.07

Qu. Look up pIC50: `Cc1ccc2nc(NC(=S)SSC(=S)Nc3nc4ccc(C)cc4s3)sc2c1`
Ans. 6.27

Qu. Suppose we examine the compound `CN=c1c2c(c3[nH]c4ccccc4c4cnc1c34)NCCC2=O` ; what pIC50 value has been reported?
Ans. 5.85

Qu. State the recorded pIC50 for this entry: `CC(=O)/C(=C/c1ccc(C#N)cc1)C(=O)c1ccccc1`
Ans. 4.78

Qu. // returns reported pIC50 for input COC(=O)CCC(NC(=O)OC(C)(C)C)C(=O)NC(Cc1ccc([N+](=O)[O-])cc1)C(=O)NC(CCC(=O)OC)C(=O)OC (configuration not stated) (Boc-Glu(OMe)-[Phe(4-NO2)]-Glu(OMe)-OMe; configuration not given here)
Ans. 4.32

Qu. pIC50 lookup needed for `CCN(CC)CCNc1nc(N)c(C#N)c(C#N)c1C#N` , thanks.
Ans. 3.76

Qu. Query (compound): `CCCCCCCC(=O)c1ccc(O)c(C(=O)Nc2ccc(C(F)(F)F)cc2)c1` ; field requested: pIC50
Ans. 5.30

---

Please respond with reported IC50 for every item in the list.
# Test system: CEM cells HIV-1 protection, formazan growth assay
# protocolDetails: NCI AIDS Antiviral Assay
# measurementConditions: measured here: growth of uninfected CEM cells
Answer in µM, number only, no unit symbol.

Qu. Which IC50 value belongs to `NS(=O)(=O)c1cc[c]([Sb]=[O])cc1` ?
Ans. 61.7

Qu. What IC50 value was documented for this molecule, `CSC1=N/C(=C\c2ccco2)C(=O)N1CN1CCOCC1` ?
Ans. 39.8

Qu. What value of IC50 has been reported for the following molecule? `Cc1ccc(NC(=S)/N=C/c2c(O)[nH]c(=O)[nH]c2=O)c(C)c1`
Ans. 151

Qu. What IC50 value was documented for this molecule, O=c1[nH]c2ccc([N+](=O)[O-])cc2nc1/C(=N/Nc1ccccc1)C(O)c1ccco1 (configuration not stated) ?
Ans. 275

Qu. Returns the measured IC50 for the input molecule. Input: COc1ccc(/C=C2/N=C(N/N=C\C(O)C(O)C(O)CO)NC2=O)cc1 (configuration not stated)
Ans. 79.4

Qu. Param item = `O=C(Cn1c(=O)oc2ccc(C(=O)c3cccc(Cl)c3)cc21)c1ccccc1` ; retrieve measured IC50.
Ans. 56.2

Qu. What IC50 value was documented for this molecule, `C1CN2CN1CN1CCN(C1)C2` ?
Ans. 22.9

Qu. What value of IC50 has been reported for the following molecule? CCCCCCCCCCCCOP(=O)(O)OCC(N)C(=O)O (configuration not stated)
Ans. 10.2

Qu. Report IC50 for `O=c1ccc2c(-c3ccccc3O)c3ccc(O)cc3oc-2c1` please.
Ans. 17.4

Qu. Could you tell me which IC50 is on file for `NS(=O)(=O)c1ccc(NNC(=O)c2cccc3c(=O)c4ccccc4[nH]c23)cc1` ?
Ans. 58.9

Qu. Consider the molecule CCOC(=O)/C(=C(\C)N)C1CC(=O)NC1=O (configuration not stated) and give its measured IC50.
Ans. 107

Qu. Entry under review: `C/C(=N/N=C(\[O-])c1ccncc1)C(F)(F)F.C/C(=N\N=C(/[O-])c1ccncc1)C(F)(F)F.[Ni+2]` . Reported IC50?
Ans. 89.1

Qu. Value lookup for IC50; key = CC1(c2ccc(F)cc2)C2C(=O)NC(=O)C1C(=O)NC2=O (configuration not stated)
Ans. 575

Qu. Need IC50, item CCOC1(O)C(=O)c2ccccc2OC1(OCC)c1ccccc1 (configuration not stated)
Ans. 26.9

Qu. Which value of IC50 has been reported for `CCOC(=O)C(=O)/C(=C/n1c(=S)[nH]c2ccc([N+](=O)[O-])cc21)C(=O)OCC` in the records?
Ans. 77.6

Qu. Sample `CCCCCCOc1ccc(C(=O)NOCc2ccccc2)cc1` — what was its IC50?
Ans. 66.1

Qu. # get_value(readout='IC50', item= `O=C(NCCCNCCCNC(=O)c1cc(-c2ccccc2)nc2ccccc12)c1cc(-c2ccccc2)nc2ccccc12` )
Ans. 2.82

Qu. I would be grateful if you could share the reported IC50 for O=C(Nc1ccccc1)N1N=C(c2ccccc2)C1c1ccccc1 (configuration not stated) .
Ans. 24.5

Qu. What value of IC50 has been recorded for this entry: `Cc1c(NC(=O)CCl)c(=O)oc2c(C)c3occc(=O)c3cc12`
Ans. 0.204

Qu. Tell me the measured IC50 of `[Cl][Pd][Cl].[NH-]CCN1CC1` , please.
Ans. 12.3

Qu. Which IC50 is reported for this molecule? `Cc1cc(-c2ccccn2)oc(=O)c1NC(=O)c1ccccc1`
Ans. 30.2

Qu. What IC50 value was documented for this molecule, O=C1CCC2(c3ccc(Cl)cc3)Nc3ccncc3N12 (configuration not stated) ?
Ans. 91.2

Qu. Could you tell me which IC50 is on file for C=C(C)COc1ccc(C2OCC(CC)C(CCC)O2)cc1 (configuration not stated) ?
Ans. 89.1

Qu. Give its IC50 value. Item: `CS/C(c1ccccc1)=[N+](/C)[O-]`
Ans. 589

Qu. If you can, please state the reported IC50 value of Cc1cccc(N2C(=O)C=C(NC(CC(C)C)c3nc4ccccc4[nH]3)C2c2ccccc2)c1 (configuration not stated) .
Ans. 17

Qu. Using the record for COc1cc2c(c(OC3OC(CO)C(O)C(O)C3O)c1)C(=O)CC(c1ccc(O)cc1)O2 (configuration not stated) , report its IC50.
Ans. 195

Qu. Consider the molecule `CN1CCC/C1=N\c1scc(-c2ccc(Br)cc2)[n+]1-c1ccccc1` and give its measured IC50.
Ans. 5.75

Qu. Query (molecule): `CN(C)C(=O)N1N[C@H](c2ccccc2)[C@@H]1c1ccccc1` ; field requested: IC50
Ans. 135
